assay.target: SIX1 homeodomain (reference allele) (human, UniProt Q15475 108-198)
Sequence: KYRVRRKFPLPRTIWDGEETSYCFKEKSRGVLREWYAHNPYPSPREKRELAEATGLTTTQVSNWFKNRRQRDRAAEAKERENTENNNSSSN
assay.protocol: universal protein binding microarray; Universal all-10-mer PBM (8x60K, AMADID 030236), 300 nM GST-tagged protein, Alexa Fluor 488 anti-GST; buffer, salt, pH and temperature not stated (as in Berger); high values mean tight binding
measurement.parameters: protein: ivt; tags: N-terminal GST; dsDNA, one strand shown
The full ranking holds about 33,000 sequences; the median of “e-score” is about -0.053, and the highest 2% start at about 0.38. Shown is part of a subset that was picked to be rich in the highest values.
Catalogue of binding signal values

construct.sequence: CAGATGAG
binding signal: 0.203 E-score
--
construct.sequence: ATCCCATC
binding signal: 0.297 E-score
--
construct.sequence: GCACGATA
binding signal: 0.325 E-score
--
construct.sequence: GAGGATAC
binding signal: 0.403 E-score
--
construct.sequence: ATCCCCAA
binding signal: 0.294 E-score
--
construct.sequence: ATCCCGCG
binding signal: 0.323 E-score
--
construct.sequence: ATCAAGAT
binding signal: 0.209 E-score
--
construct.sequence: ATCCCCGG
binding signal: 0.307 E-score
--
construct.sequence: ATCATTTA
binding signal: 0.193 E-score
--
construct.sequence: ATCCCCTG
binding signal: 0.334 E-score
--
construct.sequence: CCATGATA
binding signal: 0.376 E-score
--
construct.sequence: ATCCCAGG
binding signal: 0.246 E-score
--
construct.sequence: GATGAGAC
binding signal: 0.207 E-score
--
construct.sequence: AAGGATAA
binding signal: 0.167 E-score
--
construct.sequence: ATCCCCCA
binding signal: 0.392 E-score
--
construct.sequence: TCAATCCA
binding signal: 0.163 E-score
--
construct.sequence: GCATGATA
binding signal: 0.427 E-score
--
construct.sequence: GGTTATAC
binding signal: 0.261 E-score
--
construct.sequence: CAGGATAC
binding signal: 0.365 E-score
--
construct.sequence: AGATCATC
binding signal: 0.344 E-score
--
construct.sequence: ATACTCGG
binding signal: 0.316 E-score
--
construct.sequence: ATCCCCAT
binding signal: 0.295 E-score
--
construct.sequence: ACTCAGGG
binding signal: 0.266 E-score
--
construct.sequence: GGCTAATA
binding signal: 0.201 E-score
--
construct.sequence: ATGAATAC
binding signal: 0.284 E-score
--
construct.sequence: CTAGTGTA
binding signal: 0.189 E-score
--
construct.sequence: ATATGTAG
binding signal: 0.151 E-score
--
construct.sequence: ACATGAGA
binding signal: 0.183 E-score
--
construct.sequence: AGAGTGAT
binding signal: 0.268 E-score
--
construct.sequence: CTATCATC
binding signal: 0.34 E-score
--
construct.sequence: ATCTGAGA
binding signal: 0.292 E-score
--
construct.sequence: ATCCCGAT
binding signal: 0.378 E-score
--
construct.sequence: ATCGGTCG
binding signal: 0.225 E-score

* * *

assay.target: SIX1 homeodomain (reference allele) (human, UniProt Q15475 108-198)
Sequence: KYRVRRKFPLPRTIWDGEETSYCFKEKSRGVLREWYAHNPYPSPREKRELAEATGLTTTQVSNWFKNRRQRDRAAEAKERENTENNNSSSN
assay.protocol: universal protein binding microarray; Universal all-10-mer PBM (8x60K, AMADID 030236), 300 nM GST-tagged protein, Alexa Fluor 488 anti-GST; buffer, salt, pH and temperature not stated (as in Berger); high values mean tight binding
measurement.parameters: protein: ivt; tags: N-terminal GST; dsDNA, one strand shown
The full ranking holds about 33,000 sequences; the median of “e-score” is about -0.053, and the highest 2% start at about 0.38. Only a selection was taken, and the highest values are over-represented in it overall.
Outcome: rule met for binding signal of at least 0.3 E-score; rule not met for anything lower.

construct.sequence: ATCTTCTA
assay.target: SIX1 homeodomain (reference allele) (human, UniProt Q15475 108-198)
group.label: rule not met

construct.sequence: GGATATCC
assay.target: SIX1 homeodomain (reference allele) (human, UniProt Q15475 108-198)
group.label: rule met

construct.sequence: AGATATGC
assay.target: SIX1 homeodomain (reference allele) (human, UniProt Q15475 108-198)
group.label: rule met

construct.sequence: GGATAGCC
assay.target: SIX1 homeodomain (reference allele) (human, UniProt Q15475 108-198)
group.label: rule met

construct.sequence: GGACACCA
assay.target: SIX1 homeodomain (reference allele) (human, UniProt Q15475 108-198)
group.label: rule met

construct.sequence: CGATAGCA
assay.target: SIX1 homeodomain (reference allele) (human, UniProt Q15475 108-198)
group.label: rule not met

construct.sequence: ATAGCCAT
assay.target: SIX1 homeodomain (reference allele) (human, UniProt Q15475 108-198)
group.label: rule not met

construct.sequence: CGATATTC
assay.target: SIX1 homeodomain (reference allele) (human, UniProt Q15475 108-198)
group.label: rule met

construct.sequence: CGCCTATC
assay.target: SIX1 homeodomain (reference allele) (human, UniProt Q15475 108-198)
group.label: rule not met

construct.sequence: CATAAGAA
assay.target: SIX1 homeodomain (reference allele) (human, UniProt Q15475 108-198)
group.label: rule not met

* * *

assay.target: SIX1 homeodomain (reference allele) (human, UniProt Q15475 108-198)
Sequence: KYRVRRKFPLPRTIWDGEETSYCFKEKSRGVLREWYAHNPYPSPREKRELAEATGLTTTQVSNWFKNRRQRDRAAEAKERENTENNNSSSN
assay.protocol: universal protein binding microarray; Universal all-10-mer PBM (8x60K, AMADID 030236), 300 nM GST-tagged protein, Alexa Fluor 488 anti-GST; buffer, salt, pH and temperature not stated (as in Berger); high values mean tight binding
measurement.parameters: protein: ivt; tags: N-terminal GST; dsDNA, one strand shown
In all, about 33,000 sequences were measured (“e-score”: median about -0.053, highest 2% from about 0.38 on). This is one part of a sample in which the highest values are shown more often than they occur.
Catalogue of binding signal values
measured.attribute: binding signal (E-score)

construct.sequence: CCCATCTC
u: E-score
value.reported: 0.292
//
construct.sequence: GGGTATAC
u: E-score
value.reported: 0.416
//
construct.sequence: CAGGGATA
u: E-score
value.reported: 0.328
//
construct.sequence: AGGGGATC
u: E-score
value.reported: 0.426
//
construct.sequence: GAAGGATC
u: E-score
value.reported: 0.39
//
construct.sequence: CCGGGATC
u: E-score
value.reported: 0.375
//
construct.sequence: AATGGTGT
u: E-score
value.reported: 0.287
//
construct.sequence: CGGTATAC
u: E-score
value.reported: 0.393
//
construct.sequence: TATCTACA
u: E-score
value.reported: 0.167
//
construct.sequence: ACTGGTAT
u: E-score
value.reported: 0.386
//
construct.sequence: CCCCGATA
u: E-score
value.reported: 0.347
//
construct.sequence: CGGGGATC
u: E-score
value.reported: 0.396
//
construct.sequence: AGTGGTAT
u: E-score
value.reported: 0.35
//
construct.sequence: ATCGACAC
u: E-score
value.reported: 0.306
//
construct.sequence: GGGTATAA
u: E-score
value.reported: 0.375
//
construct.sequence: ACTGGGAT
u: E-score
value.reported: 0.239

* * *

assay.target: SIX1 homeodomain (reference allele) (human, UniProt Q15475 108-198)
Sequence: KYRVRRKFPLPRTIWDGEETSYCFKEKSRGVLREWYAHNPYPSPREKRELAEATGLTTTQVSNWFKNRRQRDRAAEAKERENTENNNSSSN
assay.protocol: universal protein binding microarray; Universal all-10-mer PBM (8x60K, AMADID 030236), 300 nM GST-tagged protein, Alexa Fluor 488 anti-GST; buffer, salt, pH and temperature not stated (as in Berger); high values mean tight binding
measurement.parameters: protein: ivt; tags: N-terminal GST; dsDNA, one strand shown
The full ranking holds about 33,000 sequences; the median of “e-score” is about -0.053, and the highest 2% start at about 0.38. Only a selection was taken, and the highest values are over-represented in it overall.
Catalogue of binding signal values

construct.sequence: CGAGTATA
binding signal / E-score: 0.29
//
construct.sequence: CGATTAAA
binding signal / E-score: 0.156
//
construct.sequence: GGTCTCAC
binding signal / E-score: 0.203
//
construct.sequence: CTATCGTA
binding signal / E-score: 0.266
//
construct.sequence: ATACTGAA
binding signal / E-score: 0.173
//
construct.sequence: AGGTGGAT
binding signal / E-score: 0.305

Data provenance: paper PMC10668032
